biological target: T1, human soluble urokinase plasminogen activator receptor (suPAR) (human, UniProt Q03405 23-303, limits assumed); assay: dissociation rate (kdis) on human suPAR; method not stated
T1 construct: also called hsuPAR; human suPAR
T1 sequence (Q03405 23-303 limits assumed): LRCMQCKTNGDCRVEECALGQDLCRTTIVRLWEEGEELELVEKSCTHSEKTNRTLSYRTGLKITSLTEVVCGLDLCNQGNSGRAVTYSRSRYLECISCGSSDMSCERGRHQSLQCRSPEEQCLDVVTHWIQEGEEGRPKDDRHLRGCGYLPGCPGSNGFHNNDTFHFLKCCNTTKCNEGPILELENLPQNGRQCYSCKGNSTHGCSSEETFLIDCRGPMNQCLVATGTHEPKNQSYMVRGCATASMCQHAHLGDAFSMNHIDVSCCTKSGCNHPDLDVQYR
We begin with a simple list: items and their reported koff.
Output spec: scalar in s⁻¹, unitless text.

Record request: koff value, item WAb0001 (antibody, V domains shown, constant regions not tied to this antibody; also called WAb CD0001) VH: QVQLVQSGAEVKKPGASVKVSCKASGYNIKDYYIHWVRQAPGQGLEWMGWISPDSGVTNYAQKFQGRVTMTRDTSTSTVYMELSSLRSEDTAVYYCARGYDVDWFVYWGQGTLVTVSS VL: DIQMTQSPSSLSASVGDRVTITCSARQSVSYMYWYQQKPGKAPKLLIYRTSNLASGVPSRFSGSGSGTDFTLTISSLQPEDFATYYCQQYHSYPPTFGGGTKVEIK
3.04e-07

Note, next up: WAb0005 (antibody, V domains shown, constant regions not tied to this antibody; also called WAb CD0005) VH: QVQLVQSGAEVKKPGASVKVSCKASGYTFIGSYVHWVRQAPGQGLEWMGWIDHENGNTIYDQKFQGRVTMTRDTSTSTVYMELSSLRSEDTAVYYCARGYDVDWFVYWGQGTLVTVSS VL: DIQMTQSPSSLSASVGDRVTITCSARSSVSYMYWYQQKPGKAPKLLIYRTSSLASGVPSRFSGSGSGTDFTLTISSLQPEDFATYYCQQYHSYPPTFGGGTKVEIK
3.97e-07

Note, next up: WAb0013 (antibody, V domains shown, constant regions not tied to this antibody; also called WAb CD0013) VH: QVQLVQSGAEVKKPGASVKVSCKASGYTFTNYYMHWVRQAPGQGLEWMGWIDHENGSTIYAQKFQGRVTMTRDTSTSTVYMELSSLRSEDTAVYYCARGYDVDWFVYWGQGTLVTVSS VL: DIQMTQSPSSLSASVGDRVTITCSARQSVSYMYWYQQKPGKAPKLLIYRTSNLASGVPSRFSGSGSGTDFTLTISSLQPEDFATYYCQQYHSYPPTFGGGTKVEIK
2.44e-07

Note, next up: WAb0018 (antibody, V domains shown, constant regions not tied to this antibody; also called WAb CD0018) VH: QVQLVQSGAEVKKPGASVKVSCKASGYTFTNYYMHWVRQAPGQGLEWMGWIDHENGNTIYDQKFQGRVTMTRDTSTSTVYMELSSLRSEDTAVYYCARGYDVDWFVYWGQGTLVTVSS VL: DIQMTQSPSSLSASVGDRVTITCSASSSISYMYWYQQKPGKAPKLLIYRTSNLASGVPSRFSGSGSGTDFTLTISSLQPEDFATYYCQQYHSYPPTFGGGTKVEIK
2.6e-07

Note, next up: WAb0006 (antibody, V domains shown, light chain is WAL0921 (human kappa) with Q27S; also called WAb CD0006; original backup candidate) VH: QVQLVQSGAEVKKPGASVKVSCKASGYTFTSHYIQWVRQAPGQGLEWMGWIDHENGNTIYDQKFQGRVTMTRDTSTSTVYMELSSLRSEDTAVYYCARGTDVDWFVYWGQGTLVTVSS VL: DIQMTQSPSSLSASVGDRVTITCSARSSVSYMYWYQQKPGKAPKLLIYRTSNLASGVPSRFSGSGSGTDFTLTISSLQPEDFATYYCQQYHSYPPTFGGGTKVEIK
3.39e-07
